- test_protocol: RAM pathway blockade in budding yeast – dse1pr::URA3 reporter, 5-FOA selection, pilot screen (AID 869);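 further: 0% = DMSO wells with no growth and 100% = 10 µM 1-NA-PP1 with full growth; RAM network block rescues cells from 5-FOA so hits raise OD615 growth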
- run_conditions: S. cerevisiae dse1pr::URA3 5-FOA growth, OD615, 2 d; at 10 µM; stronger effect = higher value; strain carries analog-sensitive mutant Cbk1 kinase
attribute_measured: inhibition (%)
Report as a plain number; the unit % is understood.

Can you look up the measured inhibition of CC1CCN(Cc2nc3c(c(=O)n(C)c(=O)n3C)n2Cc2cccc3ccccc23)CC1 for me?
0.115

Can you look up the measured inhibition of CCOC(=O)C1CCN(S(=O)(=O)c2ccc3c4c(cccc24)C(=O)N3)CC1 for me?
1.76

Can you look up the measured inhibition of Cc1nc2ccccc2c2oc(C(=O)N3CCc4ccccc4C3)cc12 for me?
1.98

Can you look up the measured inhibition of Cc1cc(N2C(=O)CC(Cc3ccccc3)C2=O)no1 (centres undefined) for me?
1.55

Can you look up the measured inhibition of COCCCNC(=O)c1cc2c(-c3ccc(Cl)cc3)nn(C)c2s1 for me?
3.08

Can you look up the measured inhibition of CN1CCN(C(=O)c2ccc(CS(=O)(=O)c3c(Cl)cccc3Cl)o2)CC1 for me?
1.41

Can you look up the measured inhibition of O=C(Nc1nnc(-c2ccc(Cl)cc2)o1)c1ccccc1Br for me?
0.69

Can you look up the measured inhibition of O=C(COc1ccc(=O)n(-c2ccccc2)n1)Nc1ccccc1 for me?
2.81

Can you look up the measured inhibition of CCCN1CCN(CCCNC(=O)Cn2ncc3c4ccccc4n(C)c3c2=O)CC1 for me?
1.89

Can you look up the measured inhibition of CCCOC(=O)C1C2C=CC3(CN(c4cccc(Cl)c4)C(=O)C13)O2 (centres undefined) for me?
-0.245

Can you look up the measured inhibition of CCOC(=O)c1cc2c(=O)n3ccccc3nc2n(CCCOC)c1=NC(C)=O for me?
1.38

Can you look up the measured inhibition of CCn1c(=O)c2cc(C(=O)NCCN3CCOCC3)sc2c2ccccc21 for me?
2.47

Can you look up the measured inhibition of CC1CCCN(C(=O)C23CCC(C)(C(=O)C2)C3(C)C)C1 (centres undefined) for me?
-0.565

Can you look up the measured inhibition of COC(=O)c1ccc(NC(=O)CN2CCCC2)cc1 for me?
0.115

Can you look up the measured inhibition of COc1cc(NC(=O)C2CCCN2S(=O)(=O)c2ccc3c(c2)CCC(=O)N3)cc(OC)c1 (centres undefined) for me?
1.09

Can you look up the measured inhibition of O=C(Cn1cnc2c(nnn2Cc2ccc(Cl)cc2)c1=O)N1CCN(c2ccccc2)CC1 for me?
1.98

Can you look up the measured inhibition of CCN1CCN(CC(O)COc2ccc(C(C)=O)cc2)CC1 (centres undefined) for me?
0.405

Can you look up the measured inhibition of CCCN(CCC)C(=O)c1c(C)[nH]c(C(=O)OCC)c1C for me?
2.12

Can you look up the measured inhibition of CCOc1ccc(N2C(=O)CC(N3CCN(C4CCc5ccccc5C4)CC3)C2=O)cc1 (centres undefined) for me?
1.93

Can you look up the measured inhibition of CC(=O)NC(CCS(C)(=O)=O)C(=O)Nc1cccc(C)c1 (centres undefined) for me?
1.04

Can you look up the measured inhibition of C=CCN(C1CCCCC1)S(=O)(=O)c1ccc2c(c1)oc(=O)n2C for me?
2.28

Can you look up the measured inhibition of NC(=O)c1sc2nc(N3CCCCC3)c3c(c2c1N)CCCC3 for me?
0.715

Can you look up the measured inhibition of CCOCCn1c(SCC(=O)OCc2ccccc2)nc2c1c(=O)[nH]c(=O)n2C for me?
0.495

---

- test_protocol: RAM pathway blockade in budding yeast – dse1pr::URA3 reporter, 5-FOA selection, pilot screen (AID 869);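 further: 0% = DMSO wells with no growth and 100% = 10 µM 1-NA-PP1 with full growth; RAM network block rescues cells from 5-FOA so hits raise OD615 growth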
- run_conditions: S. cerevisiae dse1pr::URA3 5-FOA growth, OD615, 2 d; at 10 µM; stronger effect = higher value; strain carries analog-sensitive mutant Cbk1 kinase
attribute_measured: inhibition (%)
Report as a plain number; the unit % is understood.

Observe how each entry below is paired with its result.
COC1CCCCC1Nc1cccc(SC)c1 (centres undefined) : 1.83
COc1ccc(C(C(=O)NC2CCCCC2)N2CCC3(CC2)OCCO3)cc1 (centres undefined) : 2.62
O=C(Cn1cc2c(n1)CCCCC2)N1CCc2ccccc2C1 : 1.98
CCOC(=O)c1cc(NC(=O)SCC(=O)O)c(C)nc1C : 0.56
CS(=O)(=O)NCCSCc1c(F)cccc1Cl : 1.1
CC1(C)CC(=O)C2=C(C1)NC(=O)CC2c1ccc(N(CCC#N)CCC#N)cc1 (centres undefined) : 1.41

Can you look up the measured inhibition of Cc1c(C#N)c2ccccc2n1CC(=O)N1CCc2ccccc2C1 for me?
2.05

Can you look up the measured inhibition of Cc1cccc(N2CC(c3nc4ccccc4n3C)CC2=O)c1C (centres undefined) for me?
1.46

Can you look up the measured inhibition of OCc1cn(-c2ccccc2)nc1-c1ccc(-c2nn(-c3ccccc3)cc2CO)cc1 for me?
1.8

Can you look up the measured inhibition of COCCn1c(SCC(=O)Nc2ccc3c(c2)OCCO3)nc2c(c1=O)SC(C)C2 (centres undefined) for me?
1.71

Can you look up the measured inhibition of Cc1nc2sc(C(c3cccs3)N3CCOCC3)c(O)n2n1 (centres undefined) for me?
1.54

Can you look up the measured inhibition of COCCNC(=O)CN1C(=O)CSc2ncccc21 for me?
1.92

Can you look up the measured inhibition of CC1CCc2nc3ccc(S(=O)(=O)N4CCC(C(=O)NC5CCCC5)CC4)cc3c(C(=O)O)c2C1 (centres undefined) for me?
1.08

Can you look up the measured inhibition of CC1CCN(Cc2ccc(NC(=O)C3CCN(c4nnc(-n5cccc5)s4)CC3)cc2)CC1 for me?
0.695

Can you look up the measured inhibition of CCn1c(SCC(=O)Nc2ccc(Cl)cc2)nnc1C1CC1 for me?
0.85

Can you look up the measured inhibition of Clc1ccc(Cn2cc(/C=N/n3cnnc3)c3ccccc32)cc1 for me?
1.48

Can you look up the measured inhibition of CCOc1ccc(NC(=O)CSc2nnc(COc3c(C)cccc3C)o2)cc1 for me?
3.71

Can you look up the measured inhibition of Cc1cc(C)c2c(=O)n(CC(=O)N3CCC(N4CCCCC4)CC3)sc2n1 for me?
2.08

Can you look up the measured inhibition of Cc1ccc(S(=O)(=O)NCCSc2nnnn2-c2ccc(C(N)=O)cc2)cc1 for me?
-0.71

---

growth inhibition values by entry
- test_protocol: S. cerevisiae growth inhibition in permissive medium (OD615), pilot counter-assay for S. cerevisiae lifespan shortening project, permissive growth control (AID 705)
- run_conditions: OD615, 24 h, at 10 µM, stronger effect = higher value
Report as a plain number; the unit % is understood.

Observe how each entry below is paired with its result.
CCOc1ccc(CCN2C(=O)C3C4C=CC(C4)C3C2=O)cc1OCC (stereo not drawn) : 0.49
O=C(CSc1oc(-c2ccco2)nc1S(=O)(=O)c1ccc(F)cc1)NCC1CCCO1 (stereo not drawn) : -6.81
O=C(NCc1ccco1)C1CCN(c2ccc(N3CCOCC3)nn2)CC1 : 0.41
CCCCn1c(CNC(=O)CCC)nc2ccccc21 : -9.17
CSc1nnc(Cn2c(=O)sc3ccccc32)n1-c1ccccc1C : -14.4
Cc1ccnc(SCCn2c(N3CCN(Cc4ccccc4)CC3)nc3c2c(=O)[nH]c(=O)n3C)n1 : 3.26
CCOC(=O)N1CCC(NC(=O)c2ccc(CS(=O)(=O)c3c(Cl)cccc3Cl)o2)CC1 : -12.4

Now take the following compound into account.
Can you look up the measured growth inhibition of O=C1CCC(=O)N1c1ccc(CSc2nnnn2C2CCCCC2)cc1 for me?
-0.7

---

inhibition values by entry
- test_protocol: yeast transport mutant growth inhibition pilot in 384-well plates, post-Golgi transport modulator project (AID 636)
- run_conditions: absorbance 615 nm, about 18 h, stronger effect = higher value
Report as a plain number; the unit % is understood.

CC(C)OC(=O)c1ccc(OC(=O)c2cccnc2)cc1 : 3.65
CCn1cc(C(=O)NCC2CCCO2)c(=O)c2cc(S(=O)(=O)N(C)C3CCCCC3)ccc21 (stereo unspecified) : -1.41
COC(=O)CN1C(=O)C(O)(CC(=O)c2ccc(Cl)cc2)c2ccccc21 (stereo unspecified) : -6.8

Can you look up the measured inhibition of Cc1ccc(C(=O)CSc2n[nH]c(-c3ccco3)n2)cc1C for me?
-4.68

Can you look up the measured inhibition of Cc1[nH]c2ccccc2c(=O)c1CN1CCCCC1 for me?
-4.29

Can you look up the measured inhibition of CS(=O)(=O)N(Cc1ccco1)CC(O)Cn1c2ccccc2c2ccccc21 (stereo unspecified) for me?
-3.9

Can you look up the measured inhibition of CC1CCCN(C(=O)CN2C(=O)c3ccccc3C2=O)C1 (stereo unspecified) for me?
-3.59

Can you look up the measured inhibition of CSc1nc2c(c(=O)n1C)SC(C)C2 (stereo unspecified) for me?
-5.87

These measurements were taken from PubChem BioAssay.
